IC50 values for the compounds below.
Molecular target: mouse 11β-HSD1 (Mus musculus)
Construct: 100 ug/ml human/mouse liver microsomes; from tissue; host or cells: mouse liver microsomes
Sequence (P50172 whole entry): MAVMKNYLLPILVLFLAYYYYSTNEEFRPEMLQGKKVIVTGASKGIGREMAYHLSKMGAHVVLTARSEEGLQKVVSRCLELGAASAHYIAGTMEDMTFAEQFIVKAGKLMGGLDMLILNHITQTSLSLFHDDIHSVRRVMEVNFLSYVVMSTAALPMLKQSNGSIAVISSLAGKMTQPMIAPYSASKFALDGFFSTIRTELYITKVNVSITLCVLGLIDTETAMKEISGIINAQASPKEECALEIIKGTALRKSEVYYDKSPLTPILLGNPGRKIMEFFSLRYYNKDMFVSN
Assay: Enzyme activity analysis on mouse 11β-HSD1 (HTRF cortisol, liver microsomes)
Assay type: biochemical
Conditions: second value of cell
quantityName: IC50

>>> df
                                   compound  quantityname  reportedresult
0  Cc1c(Cl)cccc1S(=O)(=O)NC1(C(=O)NC2C3CC4CC2CC(C(N)=O)(C4)C3)CC1 (stereo not shown)          IC50        0.074 µM
1  CC(C)(NS(=O)(=O)c1cccc(Cl)c1Cl)C(=O)NC1C2CC3CC(C2)CC1C3 (stereo not shown)          IC50        0.264 µM
2  NC(=O)C12CC3CC(C1)C(NC(=O)C1(NS(=O)(=O)c4cccc5cccnc45)CCCCC1)C(C3)C2 (stereo not shown)          IC50        0.006 µM
3  Cc1c(Cl)cccc1S(=O)(=O)NC1(C(=O)NC2C3CC4CC2CC(C(N)=O)(C4)C3)CCC1 (stereo not shown)          IC50         0.04 µM
